SYSTEM NAME: Peroxisome proliferator-activated receptor alpha (Homo sapiens, UniProt Q07869)
Sequence (Q07869 whole entry): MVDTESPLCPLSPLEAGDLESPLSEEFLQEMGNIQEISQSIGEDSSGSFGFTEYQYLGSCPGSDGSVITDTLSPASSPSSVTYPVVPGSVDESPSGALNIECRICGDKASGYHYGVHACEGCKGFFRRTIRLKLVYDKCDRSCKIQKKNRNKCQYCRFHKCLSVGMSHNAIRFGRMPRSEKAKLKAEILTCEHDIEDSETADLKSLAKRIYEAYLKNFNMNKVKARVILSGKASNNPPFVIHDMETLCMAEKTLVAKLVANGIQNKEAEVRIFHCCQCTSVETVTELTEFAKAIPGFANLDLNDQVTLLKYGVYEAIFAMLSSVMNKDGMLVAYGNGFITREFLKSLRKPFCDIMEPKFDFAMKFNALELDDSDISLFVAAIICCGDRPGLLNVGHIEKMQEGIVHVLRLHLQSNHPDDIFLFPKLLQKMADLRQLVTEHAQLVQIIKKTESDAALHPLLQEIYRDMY
Threshold 500 nM: IC50 strictly smaller gives TRUE, otherwise FALSE.

Answered examples (3):
Cc1oc(-c2cccc(-c3ccccc3)c2)nc1CCOc1ccc(CC(C)(Oc2ccccc2)C(=O)O)cc1 (stereo not given) | TRUE
CCCCC(Cc1ccc(OCCc2nc(-c3ccccc3)oc2C)cc1)(Oc1ccccc1)C(=O)O (stereo not given) | FALSE
CCC(Cc1ccc(OCCc2nc(-c3ccccc3)oc2C)cc1)(Oc1ccccc1)C(=O)O (stereo not given) | TRUE

Would you kindly look at the next entry?
Challenge: Find out if reported IC50 for Cc1oc(-c2ccccc2)nc1CCOc1ccc(CC(Oc2ccccc2)C(=O)O)cc1 (stereo not given) is less than 500 nM
Response given: FALSE

###

SYSTEM NAME: Peroxisome proliferator-activated receptor alpha (Homo sapiens, UniProt Q07869)
Rule for this label: rule met means EC50 is less than 70 nM; rule not met means EC50 is at least 70 nM.

These recorded examples may help you get a feel for the data.
CCC(Cc1ccc(OCCc2nc(-c3ccccc3)oc2C)cc1)(Oc1ccccc1)C(=O)O (stereo not given) | rule not met
Cc1oc(-c2ccccc2)nc1CCOc1ccc(CC(Oc2ccccc2)C(=O)O)cc1 (stereo not given) | rule not met
Cc1oc(-c2cccc(-c3ccccc3)c2)nc1CCOc1ccc(CC(C)(Oc2ccccc2)C(=O)O)cc1 (stereo not given) | rule met

// next entry
Challenge: Below 70 nM on EC50? Entry CCCCC(Cc1ccc(OCCc2nc(-c3ccccc3)oc2C)cc1)(Oc1ccccc1)C(=O)O (stereo not given)
Response given: rule not met

###

SYSTEM NAME: Peroxisome proliferator-activated receptor delta (Homo sapiens)
Sequence (Q03181 whole entry): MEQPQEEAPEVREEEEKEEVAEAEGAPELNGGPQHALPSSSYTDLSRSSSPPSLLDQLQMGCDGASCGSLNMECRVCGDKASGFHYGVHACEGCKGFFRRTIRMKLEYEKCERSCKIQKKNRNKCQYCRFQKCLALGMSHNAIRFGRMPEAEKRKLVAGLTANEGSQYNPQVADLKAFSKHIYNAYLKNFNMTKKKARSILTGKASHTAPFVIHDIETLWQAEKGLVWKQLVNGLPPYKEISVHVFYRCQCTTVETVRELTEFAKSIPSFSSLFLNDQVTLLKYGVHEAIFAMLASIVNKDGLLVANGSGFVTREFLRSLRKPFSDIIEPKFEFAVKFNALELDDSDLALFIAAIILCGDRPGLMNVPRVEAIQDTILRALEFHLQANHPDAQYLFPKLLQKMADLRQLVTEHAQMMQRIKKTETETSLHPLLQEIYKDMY
Type: cell-based, CV-1
PARTICULARS: read-out: EC50
RECORDED ENDPOINT: EC50
Please append the unit to your numeric answer.

Challenge: What value of EC50 on Peroxisome proliferator-activated receptor delta (Homo sapiens) does `Cc1oc(-c2ccccc2)nc1CCOc1ccc(C[C@@](C)(Oc2ccccc2)C(=O)O)cc1` have?
Response given: 3.01 µM

###

SYSTEM NAME: Peroxisome proliferator-activated receptor delta (Homo sapiens)
Type: functional
Overview of reported pIC50 across a group of compounds:
Quick note: pIC50 values are minus log10 of concentrations in mol/L.

// worked examples, pIC50 included
Cc1oc(-c2ccccc2)nc1CCOc1ccc(C[C@@](C)(Oc2ccccc2)C(=O)O)cc1 | 5.57
Cc1oc(C2CCCCC2)nc1CCOc1ccc(C[C@](C)(Oc2ccccc2)C(=O)O)cc1 | 5.01
Cc1oc(-c2ccccc2)nc1CCOc1ccc(OC(C)(Cc2ccccc2)C(=O)O)cc1 (stereo not drawn) | 5.35

Challenge: Look up pIC50 for this compound: CCCCC(Cc1ccc(OCCc2nc(-c3ccccc3)oc2C)cc1)(Oc1ccccc1)C(=O)O (stereo not drawn)
Response given: 5.14

Challenge: Let us now turn to CCC(Cc1ccc(OCCc2nc(-c3ccccc3)oc2C)cc1)(Oc1ccccc1)C(=O)O (stereo not drawn)
Response given: 5.29

Challenge: Now try `Cc1oc(-c2ccccc2)nc1CCOc1ccc(C[C@](C)(Oc2ccccc2)C(=O)O)cc1` .
Response given: 5.26

Challenge: Next record, please: Cc1oc(-c2ccccc2)nc1CCOc1ccc(CC(C)(Oc2ccccc2)C(=O)O)cc1 (stereo not drawn)
Response given: 5.15

Challenge: Now try Cc1oc(-c2ccccc2)nc1CCOc1ccc(CC(Oc2ccccc2)C(=O)O)cc1 (stereo not drawn) .
Response given: 5.15
